Tested on: Vero cells
Assay: Cytotoxicity
Conditions: read-out: WNV replicon CC50; Vero cells, 24 h
Measured parameter: CC50 (µM)

>  <Smiles repr>
Cl.ClCCN(CCCl)c1ccc(CCNc2ccnc3cc(Cl)ccc23)cc1

>  <Recorded result>
5.02

$$$$

---

System: BHK-21 cells
Assay: Cytotoxicity
Settings: read-out: DENV2 replicon CC50, 24 h
Measured parameter: CC50 (µM)

>  <Molecule>
Cl.ClCCN(CCCl)c1ccc(CCNc2ccnc3cc(Cl)ccc23)cc1 [Compound 4, Chloroquine ethyl phenyl mustard]

>  <Recorded result>
74.1

$$$$

---

Experiment: Cytotoxicity
Details: African green monkey, naïve Vero cells
Some compounds, each annotated with its measured CC50 at 24 h.
Measured parameter: CC50 at 24 h (µM)

>  <Compound>
CCN(CC)Cc1cc(Nc2ccnc3cc(Cl)ccc23)ccc1O

>  <Endpoint unit>
µM

>  <Recorded result>
24.4

$$$$
>  <Compound>
CC(CCCN(CCCl)CCCl)Nc1ccnc2cc(Cl)ccc12 (centres unmarked)

>  <Endpoint unit>
µM

>  <Recorded result>
3.64

$$$$

---

Experiment: Viability of replicon expressing cells
Conditions: hamster, BHK-21 cells expressing DENV2 replicon

>  <Compound>
CCN(CC)Cc1cc(Nc2ccnc3cc(Cl)ccc23)ccc1O [Compound 1]

>  <CC50 at 48 h / µM>
52.1

$$$$
